Data origin: ChEMBL document CHEMBL1132621

# system: Prostaglandin G/H synthase 1 (Homo sapiens)
# Sequence (P23219 whole entry): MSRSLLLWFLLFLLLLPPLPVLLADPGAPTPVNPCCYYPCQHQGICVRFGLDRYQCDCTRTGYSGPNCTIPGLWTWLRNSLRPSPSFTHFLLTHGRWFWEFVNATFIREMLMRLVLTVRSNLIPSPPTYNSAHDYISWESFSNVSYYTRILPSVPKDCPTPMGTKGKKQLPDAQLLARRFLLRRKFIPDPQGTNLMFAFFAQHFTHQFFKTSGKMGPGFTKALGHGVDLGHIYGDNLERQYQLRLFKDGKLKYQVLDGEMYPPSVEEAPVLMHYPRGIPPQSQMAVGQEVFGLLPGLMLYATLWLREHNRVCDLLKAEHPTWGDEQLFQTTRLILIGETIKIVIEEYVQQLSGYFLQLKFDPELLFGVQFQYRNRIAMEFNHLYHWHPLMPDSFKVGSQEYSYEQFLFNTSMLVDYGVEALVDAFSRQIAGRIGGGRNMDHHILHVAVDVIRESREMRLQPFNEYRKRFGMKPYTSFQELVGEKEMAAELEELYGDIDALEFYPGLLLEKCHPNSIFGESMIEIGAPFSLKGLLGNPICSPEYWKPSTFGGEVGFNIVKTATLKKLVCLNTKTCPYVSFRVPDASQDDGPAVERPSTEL
# assay comment: IC50 value was determined against Prostaglandin G/H synthase 1 of human platelet rich plasma; Not active
Measured IC50 by item

Before answering, review these 2 worked examples.
C=CCONC1=NC(=O)/C(=C/c2cc(C(C)(C)C)c(O)c(C(C)(C)C)c2)S1    > 20 µM
CCONC1=NC(=O)/C(=C/c2cc(C(C)(C)C)c(O)c(C(C)(C)C)c2)S1    > 20 µM

Kindly consider the entry below.
In: Fill blank: measured IC50 of the molecule CONC1=NC(=O)/C(=C/c2cc(C(C)(C)C)c(O)c(C(C)(C)C)c2)S1 is ____.
Out: > 20 µM

---

# system: Prostaglandin G/H synthase 1 (Homo sapiens)
# assay comment: IC50 against Prostaglandin G/H synthase 1 from human platelet rich plasma
readout kind: IC50 (µM)
Note: unit µM is implicit; provide only the numeric part.

CSC1=NC(=O)/C(=C/c2cc(C(C)(C)C)c(O)c(C(C)(C)C)c2)S1    14.4

Kindly consider the entry below.
In: Hi! What's the reported IC50 for CC(C)(C)c1cc(C=C2SC(=N)NC2=O)cc(C(C)(C)C)c1O on Prostaglandin G/H synthase 1 (Homo sapiens)?
Out: 0.6
